Source of measurements: paper PMC4721142

# System: Normal human articular chondrocytes
# protocol description: Cytotoxicity to chondrogenic pellets (CellTiter-Blue)
result type: Non-toxic range (Chondrocyte)

Would you please look over these solved cases?
Query: Given CC1=C(CO)C(=O)O[C@@H]([C@@H](C)[C@H]2CC[C@H]3[C@@H]4C[C@H]5O[C@]56[C@@H](O)C=CC(=O)[C@]6(C)[C@H]4CC[C@]23C)C1 [Withaferin A] , respond with its Non-toxic range (Chondrocyte).
Response: 0.27 to 2.1 µM

Query: Specify measured Non-toxic range (Chondrocyte) for NC(=O)Nc1sc(-c2ccccc2)cc1C(N)=O [IKK inhibitor VI] .
Response: 0.23 to 15.6 µM

I need Non-toxic range (Chondrocyte) for every entry listed below, if you could help.
1. Nc1cc(-c2ccncc2)c[nH]c1=O [Amrinone]
2. O=C(O)c1cc(/N=N/c2ccc(S(=O)(=O)Nc3ccccn3)cc2)ccc1O [Sulfasalazine]

Response:
1: 1.25 to 80 µM; 2: 12.5 to 800 µM

For each listed entry, give its Non-toxic range (Chondrocyte).
1. CC[C@@H]1/C=C(\C)C[C@H](C)C[C@H](OC)[C@H]2O[C@@](O)(C(=O)C(=O)N3CCCC[C@H]3C(=O)O[C@H](/C(C)=C/[C@@H]3CC[C@@H](O)[C@H](OC)C3)[C@H](C)[C@@H](O)CC1=O)[C@H](C)C[C@@H]2OC [Ascomycin]
2. Clc1cccc(Cl)c1N=C1NCCN1 [Clonidine]
3. Cc1ccc(S(=O)(=O)/C=C/C#N)cc1 [BAY-117082, BAY-11-7082]

Response:
0.625 to 40 µM
0.156 to 100 µM
0.18 to 1.5 µM
